Assay: Cmax in ICR mouse at 10 mg/kg, po by LC-MS/MS method
Format: ADME, organism-based
Design: dose 10 mg/kg, route oral
Details: in vivo
RECORDED_METRIC: Cmax (ng/mL)
State the answer as a number, implicitly in ng/mL.

Cmax lookup needed for C=CC(=O)Nc1cccc(-n2c(=O)c(=O)n(C(C)C)c3cnc(Nc4ccc(N5CCN(C)CC5)cc4OC)nc32)c1 , thanks.
136

###

Assay: Dissociation constant, pKa of the compound by Sirius T3 based assay
Format: physicochemical
For each of the molecules below, state its pKa.
API doc: respond with a numeric literal and nothing else, no unit.

pKa lookup needed for C=CC(=O)Nc1cccc(-n2c(=O)c(=O)n(C(C)C)c3cnc(Nc4ccc(N5CCN(C)CC5)c(OC)c4)nc32)c1 , thanks.
8.4

pKa lookup needed for C=CC(=O)Nc1cccc(-n2c(=O)c(=O)n(C(C)C)c3cnc(Nc4ccc(OCCN(C)C)cc4OC)nc32)c1 , thanks.
8.8

pKa lookup needed for C=CC(=O)Nc1cccc(-n2c(=O)c(=O)n(C(C)C)c3cnc(Nc4ccc(N5CCN(C)CC5)c(C)c4)nc32)c1 , thanks.
8.1

pKa lookup needed for C=CC(=O)Nc1cccc(-n2c(=O)c(=O)n(C(C)C)c3cnc(Nc4ccc(N5CCC(N6CCN(C)CC6)CC5)cc4OC)nc32)c1 , thanks.
8.8

pKa lookup needed for C=CC(=O)Nc1cccc(-n2c(=O)c(=O)[nH]c3cnc(Nc4ccc(N5CCN(C)CC5)cc4OC)nc32)c1 , thanks.
7.8

pKa lookup needed for C=CC(=O)Nc1cccc(-n2c(=O)c(=O)n(C(C)C)c3cnc(Nc4ccc(N(C)CCN(C)C)cc4OC)nc32)c1 , thanks.
8.9

pKa lookup needed for C=CC(=O)Nc1cccc(-n2c(=O)c(=O)n(CCC)c3cnc(Nc4ccc(N5CCN(C)CC5)cc4OC)nc32)c1 , thanks.
7.5

pKa lookup needed for C=CC(=O)Nc1cccc(-n2c(=O)c(=O)n(C)c3cnc(Nc4ccc(N5CCN(C)CC5)cc4OC)nc32)c1 , thanks.
7.3

pKa lookup needed for C=CC(=O)Nc1cccc(-n2c(=O)c(=O)n(CC)c3cnc(Nc4ccc(N5CCN(C)CC5)cc4OC)nc32)c1 , thanks.
7.4

pKa lookup needed for C=CC(=O)Nc1cccc(-n2c(=O)c(=O)n(C(C)C)c3cnc(Nc4ccc(N5CCN(C)CC5)cc4OC)nc32)c1 , thanks.
7.7

###

Assay: AUC (0 to t) in ICR mouse at 1 mg/kg, iv by LC-MS/MS method
Format: ADME, organism-based
Details: in vivo
RECORDED_METRIC: AUC(0-t) (ng·h/mL)
State the answer as a number, implicitly in ng·h/mL.

AUC(0-t) lookup needed for C=CC(=O)Nc1cccc(-n2c(=O)c(=O)n(C(C)C)c3cnc(Nc4ccc(N5CCN(C)CC5)cc4OC)nc32)c1 , thanks.
140

###

Test: Tmax in ICR mouse at 10 mg/kg, po by LC-MS/MS method
Type: ADME, organism-based
Conditions: in vivo
RECORDED_METRIC: Tmax (h)
State the answer as a number, implicitly in h.

Tmax lookup needed for C=CC(=O)Nc1cccc(-n2c(=O)c(=O)n(C(C)C)c3cnc(Nc4ccc(N5CCN(C)CC5)cc4OC)nc32)c1 , thanks.
2

###

Assay: Half life in ICR mouse at 1 mg/kg, iv by LC-MS/MS method
Format: ADME, organism-based
Conditions: in vivo
RECORDED_METRIC: half-life (min)
State the answer as a number, implicitly in min.

half-life lookup needed for C=CC(=O)Nc1cccc(-n2c(=O)c(=O)n(C(C)C)c3cnc(Nc4ccc(N5CCN(C)CC5)cc4OC)nc32)c1 , thanks.
48

###

Test: Oral bioavailability in ICR mouse at 10 mg/kg by LC-MS/MS method
Format: ADME, organism-based
Settings: in vivo
RECORDED_METRIC: bioavailability

bioavailability lookup needed for C=CC(=O)Nc1cccc(-n2c(=O)c(=O)n(C(C)C)c3cnc(Nc4ccc(N5CCN(C)CC5)cc4OC)nc32)c1 , thanks.
48%

###

Assay: AUC (0 to infinity) in ICR mouse at 10 mg/kg, po by LC-MS/MS method
Format: ADME, organism-based
Design: dose 10 mg/kg, time infinity, route oral
Conditions: in vivo
RECORDED_METRIC: AUC(0-inf)
Note: a bare number is incomplete; add the unit.

AUC(0-inf) lookup needed for C=CC(=O)Nc1cccc(-n2c(=O)c(=O)n(C(C)C)c3cnc(Nc4ccc(N5CCN(C)CC5)cc4OC)nc32)c1 , thanks.
680 ng·h/mL

###

Assay: AUC (0 to t) in ICR mouse at 10 mg/kg, po by LC-MS/MS method
Type: ADME, organism-based
Conditions: in vivo
RECORDED_METRIC: AUC(0-t) (ng·h/mL)
State the answer as a number, implicitly in ng·h/mL.

AUC(0-t) lookup needed for C=CC(=O)Nc1cccc(-n2c(=O)c(=O)n(C(C)C)c3cnc(Nc4ccc(N5CCN(C)CC5)cc4OC)nc32)c1 , thanks.
673

###

For each of the compounds below, state its pIC50.
Notebook: values listed as pIC50 are -log10 of the concentration (mol/L).

Write down the reported pIC50 of C=CC(=O)Nc1cccc(-n2c(=O)c(=O)n(C(C)C)c3cnc(Nc4ccc(N5CCN(C)CC5)c(OC)c4)nc32)c1 , test system: Epidermal growth factor receptor (Homo sapiens, UniProt P00533).
Sequence (P00533 whole entry): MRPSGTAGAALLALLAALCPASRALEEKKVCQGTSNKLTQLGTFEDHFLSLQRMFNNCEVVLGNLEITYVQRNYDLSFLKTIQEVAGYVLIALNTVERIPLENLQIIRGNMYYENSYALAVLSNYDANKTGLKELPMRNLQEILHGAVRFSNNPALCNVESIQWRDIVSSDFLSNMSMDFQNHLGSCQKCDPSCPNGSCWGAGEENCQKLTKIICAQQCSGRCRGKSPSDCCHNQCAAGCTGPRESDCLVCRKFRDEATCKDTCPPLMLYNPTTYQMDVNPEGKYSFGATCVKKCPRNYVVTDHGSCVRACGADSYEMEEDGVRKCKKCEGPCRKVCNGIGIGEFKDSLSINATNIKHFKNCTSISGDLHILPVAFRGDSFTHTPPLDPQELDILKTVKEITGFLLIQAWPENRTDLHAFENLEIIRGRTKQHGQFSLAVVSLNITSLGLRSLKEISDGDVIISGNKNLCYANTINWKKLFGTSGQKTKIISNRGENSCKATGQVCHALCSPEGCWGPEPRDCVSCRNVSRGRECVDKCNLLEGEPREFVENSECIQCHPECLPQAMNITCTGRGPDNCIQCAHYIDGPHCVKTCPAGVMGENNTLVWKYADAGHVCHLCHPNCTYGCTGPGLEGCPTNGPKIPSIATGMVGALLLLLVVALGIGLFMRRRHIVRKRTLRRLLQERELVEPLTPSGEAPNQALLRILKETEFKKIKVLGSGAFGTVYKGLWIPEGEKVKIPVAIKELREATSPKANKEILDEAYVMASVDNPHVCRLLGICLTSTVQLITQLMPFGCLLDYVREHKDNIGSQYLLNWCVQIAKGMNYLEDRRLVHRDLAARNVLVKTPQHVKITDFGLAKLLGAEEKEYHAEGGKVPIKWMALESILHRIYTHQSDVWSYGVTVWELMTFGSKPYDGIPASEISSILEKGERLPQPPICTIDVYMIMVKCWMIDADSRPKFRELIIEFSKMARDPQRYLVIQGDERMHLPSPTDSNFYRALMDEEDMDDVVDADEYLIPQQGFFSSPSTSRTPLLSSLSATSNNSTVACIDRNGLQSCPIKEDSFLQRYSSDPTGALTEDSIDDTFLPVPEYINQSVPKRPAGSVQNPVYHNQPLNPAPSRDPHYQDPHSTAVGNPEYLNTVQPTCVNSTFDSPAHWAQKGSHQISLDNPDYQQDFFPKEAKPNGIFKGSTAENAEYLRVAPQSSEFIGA
8.07

Write down the reported pIC50 of C=CC(=O)Nc1cccc(-n2c(=O)c(=O)n(C(C)C)c3cnc(Nc4ccc(N5CCC(N6CCN(C)CC6)CC5)cc4OC)nc32)c1 , test system: Epidermal growth factor receptor (Homo sapiens, UniProt P00533).
7.55

Write down the reported pIC50 of C=CC(=O)Nc1cccc(-n2c(=O)c(=O)[nH]c3cnc(Nc4ccc(N5CCN(C)CC5)cc4OC)nc32)c1 , test system: Epidermal growth factor receptor (Homo sapiens, UniProt P00533).
8.55

Write down the reported pIC50 of C=CC(=O)Nc1cccc(-n2c(=O)c(=O)n(CC)c3cnc(Nc4ccc(N5CCN(C)CC5)cc4OC)nc32)c1 , test system: Epidermal growth factor receptor (Homo sapiens, UniProt P00533).
7.09

Write down the reported pIC50 of C=CC(=O)Nc1cccc(-n2c(=O)c(=O)n(C(C)C)c3cnc(Nc4ccc(N5CCN(C)CC5)c(C)c4)nc32)c1 , test system: Epidermal growth factor receptor (Homo sapiens, UniProt P00533).
8.85

Write down the reported pIC50 of C=CC(=O)Nc1cccc(-n2c(=O)c(=O)n(C)c3cnc(Nc4ccc(N5CCN(C)CC5)cc4OC)nc32)c1 , test system: Epidermal growth factor receptor (Homo sapiens, UniProt P00533).
6.32

###

Assay: Half life in mouse liver microsomes at 1 uM in presence of NADPH by LC-MS/MS method
Type: ADME, Microsome
RECORDED_METRIC: half-life at 1 µM (min)
State the answer as a number, implicitly in min.

half-life at 1 µM lookup needed for C=CC(=O)Nc1cccc(-n2c(=O)c(=O)n(C(C)C)c3cnc(Nc4ccc(N5CCN(C)CC5)cc4OC)nc32)c1 , thanks.
51

###

Test system Epidermal growth factor receptor (Homo sapiens, UniProt P00533), IC50 listed for each of the molecules.
Note: a bare number is incomplete; add the unit.

IC50 lookup needed for C=CC(=O)Nc1cccc(-n2c(=O)c(=O)n(CCC)c3cnc(Nc4ccc(N5CCN(C)CC5)cc4OC)nc32)c1 , thanks.
0.0022 µM

IC50 lookup needed for C=CC(=O)Nc1cccc(-n2c(=O)c(=O)n(C(C)C)c3cnc(Nc4ccc(OCCN(C)C)cc4OC)nc32)c1 , thanks.
0.068 µM

IC50 lookup needed for C=CC(=O)Nc1cccc(-n2c(=O)c(=O)n(C(C)C)c3cnc(Nc4ccc(N5CCN(C)CC5)cc4OC)nc32)c1 , thanks.
0.002 µM

IC50 lookup needed for C=CC(=O)Nc1cccc(-n2c(=O)c(=O)n(C(C)C)c3cnc(Nc4ccc(N(C)CCN(C)C)cc4OC)nc32)c1 , thanks.
0.223 µM

###

Assay: Tmax in ICR mouse at 1 mg/kg, iv by LC-MS/MS method
Type: ADME, organism-based
Settings: in vivo
RECORDED_METRIC: Tmax (min)
State the answer as a number, implicitly in min.

Tmax lookup needed for C=CC(=O)Nc1cccc(-n2c(=O)c(=O)n(C(C)C)c3cnc(Nc4ccc(N5CCN(C)CC5)cc4OC)nc32)c1 , thanks.
54

###

Biological target: Epidermal growth factor receptor (Homo sapiens, UniProt P00533, L858R/T790M)
Sequence (P00533 25-1210 T790M/L858R limits assumed): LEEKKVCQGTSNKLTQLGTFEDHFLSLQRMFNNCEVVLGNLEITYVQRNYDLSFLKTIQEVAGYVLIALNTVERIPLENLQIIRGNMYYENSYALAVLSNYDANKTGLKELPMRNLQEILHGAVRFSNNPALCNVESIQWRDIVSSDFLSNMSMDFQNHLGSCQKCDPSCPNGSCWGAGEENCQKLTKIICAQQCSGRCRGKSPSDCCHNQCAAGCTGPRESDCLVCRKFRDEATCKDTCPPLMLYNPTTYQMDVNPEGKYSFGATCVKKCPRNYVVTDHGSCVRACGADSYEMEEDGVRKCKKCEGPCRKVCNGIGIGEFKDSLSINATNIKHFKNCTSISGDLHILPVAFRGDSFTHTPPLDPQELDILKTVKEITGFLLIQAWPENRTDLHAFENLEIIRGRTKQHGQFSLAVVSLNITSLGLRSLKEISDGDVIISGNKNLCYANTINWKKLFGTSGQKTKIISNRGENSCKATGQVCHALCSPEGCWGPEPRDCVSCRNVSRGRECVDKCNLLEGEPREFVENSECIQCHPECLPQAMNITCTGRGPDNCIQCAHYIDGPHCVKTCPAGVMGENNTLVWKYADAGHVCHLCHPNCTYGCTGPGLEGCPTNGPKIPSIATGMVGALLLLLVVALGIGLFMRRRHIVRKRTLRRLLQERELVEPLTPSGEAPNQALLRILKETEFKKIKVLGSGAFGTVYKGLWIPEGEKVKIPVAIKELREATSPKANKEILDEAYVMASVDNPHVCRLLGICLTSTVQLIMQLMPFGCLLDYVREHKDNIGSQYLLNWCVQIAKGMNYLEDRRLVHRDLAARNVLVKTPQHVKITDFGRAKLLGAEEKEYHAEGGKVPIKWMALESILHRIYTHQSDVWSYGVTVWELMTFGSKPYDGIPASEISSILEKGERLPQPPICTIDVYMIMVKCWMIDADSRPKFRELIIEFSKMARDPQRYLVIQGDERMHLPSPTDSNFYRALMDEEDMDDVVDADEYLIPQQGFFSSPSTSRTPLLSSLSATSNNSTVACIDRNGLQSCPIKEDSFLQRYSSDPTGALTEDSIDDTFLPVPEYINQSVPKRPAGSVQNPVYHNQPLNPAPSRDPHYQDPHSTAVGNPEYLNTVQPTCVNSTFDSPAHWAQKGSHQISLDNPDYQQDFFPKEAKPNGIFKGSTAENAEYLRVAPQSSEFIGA
Experiment: Inhibition of EGFR kinase domain L858R/T790M mutant (unknown origin) expressed using baculovirus expression system incubated for 1 hr using Poly(Glu,Tyr) 4:1 by ELISA method
For each of the compounds below, state its IC50.
State the answer as a number, implicitly in nM.

Write down the reported IC50 of C=CC(=O)Nc1cccc(-n2c(=O)c(=O)[nH]c3cnc(Nc4ccc(N5CCN(C)CC5)cc4OC)nc32)c1 , test system: Epidermal growth factor receptor (Homo sapiens, UniProt P00533, L858R/T790M).
2.5

Write down the reported IC50 of C=CC(=O)Nc1cccc(-n2c(=O)c(=O)n(C(C)C)c3cnc(Nc4ccc(OCCN(C)C)cc4OC)nc32)c1 , test system: Epidermal growth factor receptor (Homo sapiens, UniProt P00533, L858R/T790M).
143

Write down the reported IC50 of C=CC(=O)Nc1cccc(-n2c(=O)c(=O)n(C(C)C)c3cnc(Nc4ccc(N5CCN(C)CC5)c(OC)c4)nc32)c1 , test system: Epidermal growth factor receptor (Homo sapiens, UniProt P00533, L858R/T790M).
1.3

Write down the reported IC50 of C=CC(=O)Nc1cccc(-n2c(=O)c(=O)n(C)c3cnc(Nc4ccc(N5CCN(C)CC5)cc4OC)nc32)c1 , test system: Epidermal growth factor receptor (Homo sapiens, UniProt P00533, L858R/T790M).
4.7

Write down the reported IC50 of C=CC(=O)Nc1cccc(-n2c(=O)c(=O)n(C(C)C)c3cnc(Nc4ccc(N(C)CCN(C)C)cc4OC)nc32)c1 , test system: Epidermal growth factor receptor (Homo sapiens, UniProt P00533, L858R/T790M).
17

Write down the reported IC50 of C=CC(=O)Nc1cccc(-n2c(=O)c(=O)n(C(C)C)c3cnc(Nc4ccc(N5CCN(C)CC5)c(C)c4)nc32)c1 , test system: Epidermal growth factor receptor (Homo sapiens, UniProt P00533, L858R/T790M).
1.5

Write down the reported IC50 of C=CC(=O)Nc1cccc(-n2c(=O)c(=O)n(C(C)C)c3cnc(Nc4ccc(N5CCC(N6CCN(C)CC6)CC5)cc4OC)nc32)c1 , test system: Epidermal growth factor receptor (Homo sapiens, UniProt P00533, L858R/T790M).
7.8

Taken from ChEMBL document CHEMBL4425144.
